Test system: Kanzawa spider mite (Tetranychus kanzawai kishida) which had acquired a strong resistance to chlorfenapyr
Experiment: Miticidal effect against female imagines of chlorfenapyr-resistant Kanzawa spider mite, leaf disk spray test
Format: in vivo
Settings: single test compound; female imago, chlorfenapyr-resistant strain; mortality two days after spray treatment, 25±1° C.; probit analysis
assay.readout: LC50 (ppm)
Use ppm as the unit, but write only the number.

Field: example entries. Status: answers known.
>>> print(df.to_string())
                                   molecule  quantitative_readout
0  CCCSP(=S)(OCC)Oc1ccc(SC)cc1 (stereo not shown) [Sulprofos]                   320
1         COP(=S)(OC)Oc1ccc(SC)c(C)c1 [MPP]                  1100
2  CCOP(=S)(OCC)SCn1c(=O)oc2cc(Cl)ccc21 [Phosalone]                   350
3  CCOP(=S)(Oc1ccc([N+](=O)[O-])cc1)c1ccccc1 (stereo not shown) [EPN]                  3100

For this molecule ( CCOP(=S)(OCC)Oc1cc(C)nc(C(C)C)n1 [Diazinon] ), measured LC50 is 3200

For this molecule ( COP(=S)(OC)Oc1nc(Cl)c(Cl)cc1Cl [Chlorpyrifosmethyl] ), measured LC50 is 790

For this molecule ( COP(=S)(OC)Oc1ccc(C#N)cc1 [CYAP] ), measured LC50 is 3200
